Entries and their viability, T/C
Test system: 596521-263-R-J1-PDC complex spheroid growth
Assay: Anticancer human tumor 596521-263-R-J1-PDC patient-derived soft tissue sarcoma cell line growth inhibition [Asc]
Settings: second compound 0.316 µM; first compound 0.0316 µM; stronger effect = lower value
ASSAY_METRIC: viability, T/C (%)

[[record]]
compound = "O=C(c1cc(Cc2n[nH]c(=O)c3ccccc23)ccc1F)N1CCN(C(=O)C2CC2)CC1 + CNC(C)C(=O)NC1CN(S(=O)(=O)c2cccc(S(=O)(=O)N3CCC4CCC(C(=O)NC(c5ccccc5)c5ccccc5)N4C(=O)C(NC(=O)C(C)NC)C3)c2)CCC2CCC(C(=O)NC(c3ccccc3)c3ccccc3)N2C1=O"
quantitative_result = 77.4

[[record]]
compound = "COc1c(OCCCN2CCOCC2)ccc2c3n(c(=NC(=O)c4cnc(N)nc4)nc12)CCN3 + Cc1c(S(C)(=O)=O)c(-c2cc(F)cc(N3CCN(c4ccc(NS(=O)(=O)c5ccc(NC(CCN6CCC(C(=O)OCCCP(=O)(O)O)CC6)CSc6ccccc6)c(S(=O)(=O)C(F)(F)F)c5)cc4)CC3)c2)c(-c2ccc(Cl)cc2)n1C(C)C"
quantitative_result = 65.9

[[record]]
compound = "Cn1ncnc1[C@H]1c2n[nH]c(=O)c3cc(F)cc(c23)N[C@@H]1c1ccc(F)cc1 + CNC(C)C(=O)NC1CN(S(=O)(=O)c2cccc(S(=O)(=O)N3CCC4CCC(C(=O)NC(c5ccccc5)c5ccccc5)N4C(=O)C(NC(=O)C(C)NC)C3)c2)CCC2CCC(C(=O)NC(c3ccccc3)c3ccccc3)N2C1=O"
quantitative_result = 65.1

[[record]]
compound = "CCN1CCN(Cc2ccc(Nc3ncc(F)c(-c4cc(F)c5nc(C)n(C(C)C)c5c4)n3)nc2)CC1 + Cc1c(S(C)(=O)=O)c(-c2cc(F)cc(N3CCN(c4ccc(NS(=O)(=O)c5ccc(NC(CCN6CCC(C(=O)OCCCP(=O)(O)O)CC6)CSc6ccccc6)c(S(=O)(=O)C(F)(F)F)c5)cc4)CC3)c2)c(-c2ccc(Cl)cc2)n1C(C)C"
quantitative_result = 77.8


----------
Test system: 596521-263-R-J1-PDC complex spheroid growth
Assay: Anticancer human tumor 596521-263-R-J1-PDC cell line growth inhibition [Asc];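 note: spheroids exposed to compounds for 7 days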
Details: second compound 0.1 µM; first compound 0.01 µM; stronger effect = lower value
Labelling: viability, T/C reported below 80% becomes criterion met; at or above becomes criterion not met.

[[record]]
compound = "Cn1ncnc1[C@H]1c2n[nH]c(=O)c3cc(F)cc(c23)N[C@@H]1c1ccc(F)cc1 + CNC(C)C(=O)NC1CN(S(=O)(=O)c2cccc(S(=O)(=O)N3CCC4CCC(C(=O)NC(c5ccccc5)c5ccccc5)N4C(=O)C(NC(=O)C(C)NC)C3)c2)CCC2CCC(C(=O)NC(c3ccccc3)c3ccccc3)N2C1=O"
class_assignment = "criterion met"

[[record]]
compound = "CCN1CCN(Cc2ccc(Nc3ncc(F)c(-c4cc(F)c5nc(C)n(C(C)C)c5c4)n3)nc2)CC1 + Cc1c(S(C)(=O)=O)c(-c2cc(F)cc(N3CCN(c4ccc(NS(=O)(=O)c5ccc(NC(CCN6CCC(C(=O)OCCCP(=O)(O)O)CC6)CSc6ccccc6)c(S(=O)(=O)C(F)(F)F)c5)cc4)CC3)c2)c(-c2ccc(Cl)cc2)n1C(C)C"
class_assignment = "criterion not met"

[[record]]
compound = "CNC(C)C(=O)NC1CN(S(=O)(=O)c2cccc(S(=O)(=O)N3CCC4CCC(C(=O)NC(c5ccccc5)c5ccccc5)N4C(=O)C(NC(=O)C(C)NC)C3)c2)CCC2CCC(C(=O)NC(c3ccccc3)c3ccccc3)N2C1=O (stereo unspecified) + Cc1c(S(C)(=O)=O)c(-c2cc(F)cc(N3CCN(c4ccc(NS(=O)(=O)c5ccc(NC(CCN6CCC(C(=O)OCCCP(=O)(O)O)CC6)CSc6ccccc6)c(S(=O)(=O)C(F)(F)F)c5)cc4)CC3)c2)c(-c2ccc(Cl)cc2)n1C(C)C"
class_assignment = "criterion not met"

[[record]]
compound = "COc1c(OCCCN2CCOCC2)ccc2c3n(c(=NC(=O)c4cnc(N)nc4)nc12)CCN3 + Cc1c(S(C)(=O)=O)c(-c2cc(F)cc(N3CCN(c4ccc(NS(=O)(=O)c5ccc(NC(CCN6CCC(C(=O)OCCCP(=O)(O)O)CC6)CSc6ccccc6)c(S(=O)(=O)C(F)(F)F)c5)cc4)CC3)c2)c(-c2ccc(Cl)cc2)n1C(C)C"
class_assignment = "criterion not met"


----------
System: 596521-263-R-J1-PDC complex spheroid growth
Experiment: Anticancer human tumor 596521-263-R-J1-PDC cell line growth inhibition [Asc];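 note: spheroids exposed to compounds for 7 days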
Details: second compound 0.316 µM; first compound 0.01 µM; stronger effect = lower value
Entries and their viability, T/C
ASSAY_METRIC: viability, T/C (%)

[[record]]
compound = "Cn1ncnc1[C@H]1c2n[nH]c(=O)c3cc(F)cc(c23)N[C@@H]1c1ccc(F)cc1 + CNC(C)C(=O)NC1CN(S(=O)(=O)c2cccc(S(=O)(=O)N3CCC4CCC(C(=O)NC(c5ccccc5)c5ccccc5)N4C(=O)C(NC(=O)C(C)NC)C3)c2)CCC2CCC(C(=O)NC(c3ccccc3)c3ccccc3)N2C1=O"
quantitative_result = 64

[[record]]
compound = "Cn1ncnc1[C@H]1c2n[nH]c(=O)c3cc(F)cc(c23)N[C@@H]1c1ccc(F)cc1 + Cc1c(S(C)(=O)=O)c(-c2cc(F)cc(N3CCN(c4ccc(NS(=O)(=O)c5ccc(NC(CCN6CCC(C(=O)OCCCP(=O)(O)O)CC6)CSc6ccccc6)c(S(=O)(=O)C(F)(F)F)c5)cc4)CC3)c2)c(-c2ccc(Cl)cc2)n1C(C)C"
quantitative_result = 82.8


----------
Tested on: 596521-263-R-J1-PDC complex spheroid growth
Assay: Anticancer human tumor 596521-263-R-J1-PDC cell line growth inhibition [Asc];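 note: spheroids exposed to compounds for 7 days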
Conditions: second compound 0.01 µM; first compound 0.316 µM; stronger effect = lower value
ASSAY_METRIC: viability, T/C (%)

[[record]]
molecule = "CCN1CCN(Cc2ccc(Nc3ncc(F)c(-c4cc(F)c5nc(C)n(C(C)C)c5c4)n3)nc2)CC1 + CNC(C)C(=O)NC1CN(S(=O)(=O)c2cccc(S(=O)(=O)N3CCC4CCC(C(=O)NC(c5ccccc5)c5ccccc5)N4C(=O)C(NC(=O)C(C)NC)C3)c2)CCC2CCC(C(=O)NC(c3ccccc3)c3ccccc3)N2C1=O"
target_under_test = "596521-263-R-J1-PDC complex spheroid growth"
quantitative_result = 81.6

[[record]]
molecule = "O=C(c1ccc(F)c(F)c1Nc1ccc(I)cc1F)N1CC(O)([C@@H]2CCCCN2)C1 + CNC(C)C(=O)NC1CN(S(=O)(=O)c2cccc(S(=O)(=O)N3CCC4CCC(C(=O)NC(c5ccccc5)c5ccccc5)N4C(=O)C(NC(=O)C(C)NC)C3)c2)CCC2CCC(C(=O)NC(c3ccccc3)c3ccccc3)N2C1=O"
target_under_test = "596521-263-R-J1-PDC complex spheroid growth"
quantitative_result = 45.2

[[record]]
molecule = "O=C(c1cc(Cc2n[nH]c(=O)c3ccccc23)ccc1F)N1CCN(C(=O)C2CC2)CC1 + CNC(C)C(=O)NC1CN(S(=O)(=O)c2cccc(S(=O)(=O)N3CCC4CCC(C(=O)NC(c5ccccc5)c5ccccc5)N4C(=O)C(NC(=O)C(C)NC)C3)c2)CCC2CCC(C(=O)NC(c3ccccc3)c3ccccc3)N2C1=O"
target_under_test = "596521-263-R-J1-PDC complex spheroid growth"
quantitative_result = 60.7

[[record]]
molecule = "C#Cc1c(F)ccc2cc(O)cc(-c3ncc4c(N5CC6CCC(C5)N6)nc(OCC56CCCN5CC(F)C6)nc4c3F)c12 (centres undefined) + CNC(C)C(=O)NC1CN(S(=O)(=O)c2cccc(S(=O)(=O)N3CCC4CCC(C(=O)NC(c5ccccc5)c5ccccc5)N4C(=O)C(NC(=O)C(C)NC)C3)c2)CCC2CCC(C(=O)NC(c3ccccc3)c3ccccc3)N2C1=O"
target_under_test = "596521-263-R-J1-PDC complex spheroid growth"
quantitative_result = 86.7


----------
Test system: 596521-263-R-J1-PDC complex spheroid growth
Test: Anticancer human tumor 596521-263-R-J1-PDC cell line growth inhibition [Asc];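 note: spheroids exposed to compounds for 7 days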
Conditions: curve of first compound; second compound 0.0316 µM
ASSAY_METRIC: IC50

[[record]]
molecule = "CNC(C)C(=O)NC1CN(S(=O)(=O)c2cccc(S(=O)(=O)N3CCC4CCC(C(=O)NC(c5ccccc5)c5ccccc5)N4C(=O)C(NC(=O)C(C)NC)C3)c2)CCC2CCC(C(=O)NC(c3ccccc3)c3ccccc3)N2C1=O (stereo not drawn) + Cc1c(S(C)(=O)=O)c(-c2cc(F)cc(N3CCN(c4ccc(NS(=O)(=O)c5ccc(NC(CCN6CCC(C(=O)OCCCP(=O)(O)O)CC6)CSc6ccccc6)c(S(=O)(=O)C(F)(F)F)c5)cc4)CC3)c2)c(-c2ccc(Cl)cc2)n1C(C)C"
result = "> 1000 nM"

[[record]]
molecule = "COc1c(OCCCN2CCOCC2)ccc2c3n(c(=NC(=O)c4cnc(N)nc4)nc12)CCN3 + Cc1c(S(C)(=O)=O)c(-c2cc(F)cc(N3CCN(c4ccc(NS(=O)(=O)c5ccc(NC(CCN6CCC(C(=O)OCCCP(=O)(O)O)CC6)CSc6ccccc6)c(S(=O)(=O)C(F)(F)F)c5)cc4)CC3)c2)c(-c2ccc(Cl)cc2)n1C(C)C"
result = "211 nM"

[[record]]
molecule = "C=CC(=O)N1CCN(c2nc(=O)n(-c3c(C)ccnc3C(C)C)c3nc(-c4c(O)cccc4F)c(F)cc23)C(C)C1 (stereo not drawn) + Cc1c(S(C)(=O)=O)c(-c2cc(F)cc(N3CCN(c4ccc(NS(=O)(=O)c5ccc(NC(CCN6CCC(C(=O)OCCCP(=O)(O)O)CC6)CSc6ccccc6)c(S(=O)(=O)C(F)(F)F)c5)cc4)CC3)c2)c(-c2ccc(Cl)cc2)n1C(C)C"
result = "> 10000 nM"

